- subject-of-test: Human immunodeficiency virus type 1 protease (Human immunodeficiency virus 1, UniProt Q72874)
I'd be grateful if you could share measured IC50 for these entries.

-- ask Give IC50 for the following molecule: CC1(C)S[C@H]([C@H](NC(=O)Cc2ccccc2)C(=O)NCc2ccccc2)N[C@H]1C(=O)N[C@H](Cc1ccccc1)[C@H](O)CC(=O)N[C@@H](CO)c1ccccc1
-- reply 190 nM

-- ask Give IC50 for the following molecule: C[C@H](CO)NC(=O)[C@@H]1N[C@@H]([C@H](NC(=O)Cc2ccccc2)C(=O)NCc2ccccc2)SC1(C)C
-- reply > 20000 nM

-- ask Name the recorded IC50 of the molecule listed here: CC1(C)S[C@H]([C@H](NC(=O)Cc2ccccc2)C(=O)NCc2ccccc2)N[C@H]1C(=O)N[C@H](Cc1ccccc1)[C@H](O)CC(N)=O
-- reply 82 nM

-- ask Read the entry CC1(C)S[C@H]([C@H](NC(=O)Cc2ccccc2)C(=O)NCc2ccccc2)N[C@H]1C(=O)N[C@H](Cc1ccccc1)[C@@H](O)CC(=O)NCc1ccccc1 and write its reported IC50.
-- reply 2900 nM

-- ask Give a short answer stating reported IC50 for CC1(C)S[C@H]([C@H](NC(=O)Cc2ccccc2)C(=O)NCc2ccccc2)N[C@H]1C(=O)N[C@@H](CO)Cc1ccccc1 .
-- reply 150 nM

-- ask Find the measured IC50 of CC1(C)S[C@H]([C@H](NC(=O)Cc2ccccc2)C(=O)NCc2ccccc2)N[C@H]1C(=O)N[C@H](Cc1ccccc1)[C@H](O)CC(=O)NCCCO and report it.
-- reply 54 nM

-- ask Dear colleague, please send me the reported IC50 for CC1(C)S[C@H]([C@H](NC(=O)Cc2ccccc2)C(=O)NCc2ccccc2)N[C@H]1C(=O)N[C@@H](CO)CCc1ccccc1 when you can.
-- reply 25000 nM

-- ask Return IC50 (reported value) for this molecule: CC(C)CNC(=O)C[C@H](O)[C@@H](Cc1ccccc1)NC(=O)[C@@H]1N[C@@H]([C@H](NC(=O)Cc2ccccc2)C(=O)NCc2ccccc2)SC1(C)C
-- reply 2800 nM

-- ask Please give measured IC50 of the following entry: CCCCC(CO)NC(=O)[C@@H]1N[C@@H]([C@H](NC(=O)Cc2ccccc2)C(=O)NCc2ccccc2)SC1(C)C (stereo partly drawn)
-- reply 250 nM

-- ask Tell me IC50 reported for CC1(C)S[C@H]([C@H](NC(=O)Cc2ccccc2)C(=O)NCc2ccccc2)N[C@H]1C(=O)NCCCNC(=O)[C@@H]1N[C@@H]([C@H](NC(=O)Cc2ccccc2)C(=O)NCc2ccccc2)SC1(C)C
-- reply 540 nM

-- ask Please list IC50 recorded for the molecule CC1(C)S[C@H]([C@H](NC(=O)Cc2ccccc2)C(=O)NCc2ccccc2)N[C@H]1C(N)=O
-- reply > 230000 nM

-- ask Hello, please tell me recorded IC50 for this one: CC1(C)S[C@H]([C@H](NC(=O)Cc2ccccc2)C(=O)NCc2ccccc2)N[C@H]1C(=O)NCCO
-- reply 180000 nM

-- ask Return reported IC50. Input molecule: C[C@H](Cc1ccccc1)NC(=O)[C@@H]1N[C@@H]([C@H](NC(=O)Cc2ccccc2)C(=O)NCc2ccccc2)SC1(C)C
-- reply > 180000 nM
